Origin of measurements: ChEMBL document CHEMBL1201862

test system: Malme-3M; assay: NCI tumour cell line growth inhibition, 48 h
Activity calls are given as the source filed them. Cut-off read from the data, not from the text of the source: active = GI50 up to about 1.1 µM and inactive = higher. Where a SMILES comes first, the peptide text is derived from it. The star is where a group is joined. Boc = CC(C)(C)OC(=O)*
Just give me one of these, please: active, inactive

Cc1cccc(C(C)C)c1NC(=O)C(=O)CC(=O)c1c(C)[n+]([O-])c2ccccc2[n+]1[O-]
inactive
Cc1ccc(/C=N/NC2=NCCN2)s1
inactive
Cc1nc(O)c(O)c(CN2CCCCC2)n1
inactive

Query: recorded result category for CCO/C=C1\N=C(C(Cl)c2ccccc2)OC1=O (stereo not given) in this test inactive

Assay outcome for `O=C1c2nc3n(c2C(=O)c2c1nc1n2CCC1)CCC3` : what was it? active

# outcome recorded in this test, key = COC(=O)CNC(=O)C(Cc1ccccc1)NC(=O)C(CCSC)NC(=O)C(Cc1ccc(O)cc1)NC(=O)OC(C)(C)C (stereo not given) (Boc-YMFG-OMe; configuration not given here) inactive

Call for entry `CC(C)[C@H]1CO[C@]2(C)[C@@H]3CN(Cc4ccccc4)C[C@@H]3C(=O)N12` : inactive

Give the logged outcome of this assay for the following compound: `O=c1[nH][nH]c(=O)n1Cc1cccc(Cn2c(=O)[nH][nH]c2=O)c1` inactive

For `O=C(O)c1cc2ccccc2c(/N=N/c2ccccc2)c1O` , what call appears in the results of this test? inactive

For this compound, state the assay outcome: C/C=C1/CC(C(=O)OC)N(C(=O)OCc2ccccc2)C1=S (stereo not given) inactive

---

tested on: UACC-257; experiment: NCI tumour cell line growth inhibition, 48 h
Active and inactive are the calls of the source. No stated cut-off is given here; in the data, active = GI50 up to about 1.1 µM and inactive = higher.
Documented GI50 across a set of molecules

CC(=O)NCCCCCCNC(C)=O [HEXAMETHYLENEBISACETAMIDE]
7080 µM (inactive)
O=C(/C=C/c1ccc(O)cc1)c1cc(O)cc(O)c1
16.3 µM (inactive)
COc1ccc2c(c1)C1=NCCN(C)c3ccc([N+](=O)[O-])c(c31)N2
2.54 µM (inactive)
CN1CC=C(c2cccn2C)CC1
> 100 µM (inactive)
N=c1oc2cc(O)ccc2cc1C(=O)NCc1ccccc1
44.7 µM (inactive)

Entry COc1ccc(/C=C2\CCC(C)C3=C2NC(=S)NC3c2ccc(OC)c(OC)c2)cc1OC (stereo unspecified) , tested on UACC-257, has a reported GI50 of > 31.6 µM (inactive)

---

GI50: recorded values
system: SF-295; test: NCI tumour cell line growth inhibition, 48 h
Calls of active or inactive are those of the source. No stated cut-off is given here; in the data, active = GI50 up to about 1.1 µM and inactive = higher.

So, CC(C)Cn1cnc2c(NCC(C)O)nc3ccccc3c21 (stereo unspecified) ? Its GI50 was > 100 µM (inactive)

For record C=CCCCCOC1C=CC(OC(C)=O)C(COC(C)=O)O1 (stereo unspecified) the listed GI50 is > 100 µM (inactive)

Form: molecule = CC1=CC(C)(c2c[nH]c3ccccc23)CC(C)(C)c2c1[nH]c1ccccc21 (stereo unspecified) ; GI50 = 14.5 µM (inactive)

---

tested on: HL-60; assay: NCI tumour cell line growth inhibition, 48 h
The source made the active and inactive calls. No stated cut-off is given here; in the data, active = GI50 up to about 1.1 µM and inactive = higher.
Attribute: GI50

# annotated cases, reported GI50 shown
C[n+]1c(-c2ccc(NC(=O)c3ccc(C(=O)Nc4ccc(-c5cn6ccccc6[n+]5C)cc4)cc3)cc2)cn2ccccc21
23.4 µM (inactive)
CN(C)c1ccc([S+]([O-])Nc2ccccc2)cc1 (stereo unspecified)
28.1 µM (inactive)
O=C(O)c1cc2ccccc2c(/N=N/c2ccc(S(=O)(=O)Nc3nccs3)cc2)c1O
> 100 µM (inactive)
O=C1Cc2c([nH]c3ccccc23)-c2ccccc2N1 [PAULLONE]
15.4 µM (inactive)
CC1SCCc2nc3ccccc3n21 (stereo unspecified)
> 100 µM (inactive)

# GI50 of `COc1cccc(-c2cc(O)c3cc(C)cnc3n2)c1` = 0.0246 µM (active)

Briefly, GI50 measured for COc1cccc2c1C(=O)c1c(O)c3c(c(O)c1C2=O)C[C@@](O)(/C(C)=N\O)C[C@@H]3OC1CC(N)C(O)C(C)O1 (stereo partly specified) : 0.218 µM (active)

// recorded GI50 for O=C(NC(Cc1c[nH]c2ccccc12)C(=O)O)/C(=C/c1ccccc1)NC(=O)c1ccccc1 (stereo unspecified) : 77.6 µM (inactive)

---

Overview of recorded GI50 for various molecules
test system: UACC-62; assay: NCI tumour cell line growth inhibition, 48 h
Calls of active or inactive are those of the source. Cut-off read from the data, not from the text of the source: active = GI50 up to about 1.1 µM and inactive = higher.

Below: 8 molecules and their reported GI50.
CCOC(=O)C(C)(C)Oc1ccc(Cl)cc1 [CLOFIBRATE]
514 µM (inactive)
Clc1ccc(Nc2nnc(CNc3ccc(-c4nnc(Nc5ccc(Cl)cc5)o4)cc3)o2)cc1
13.6 µM (inactive)
O=C1Cc2c(-c3ccccc3)cc(-c3cccc(Cl)c3)nc2-c2ccccc2N1
3.03 µM (inactive)
CCOC(=O)c1nc2ccc(C(F)(F)F)cc2nc1NCc1ccc(OC)cc1
> 100 µM (inactive)
CC1=NN(c2nc(N)nc(COCc3nc(N)nc(N4N=C(C)CC4(C)C)n3)n2)C(C)(C)C1
> 100 µM (inactive)
O=C(O)CSc1nnc(Cc2ccccc2)[nH]1
> 100 µM (inactive)
Nc1ncnc2c1nc(Cl)n2C1OC(CO)C(O)C1O (stereo unspecified)
0.966 µM (active)
Cc1cccc2c1NC(c1c(C)[nH]c3ccccc13)C2 (stereo unspecified)
78.2 µM (inactive)

The reported GI50 of the molecule Cc1nn(C(=O)Cc2ccccc2)c2c1C(c1ccc(/C=C/c3ccccc3)cc1)SC(=N)N2 (stereo unspecified) was > 100 µM (inactive)

Recorded GI50 (molecule `CC(CCc1nc2ccccc2s1)(c1ccc(O)cc1)c1ccc(O)cc1` ): 15.9 µM (inactive)

get_value(item= `c1cc2c(cc1[C@@H]1OC[C@@H]3[C@H]1CO[C@H]3c1ccc3c(c1)OCO3)OCO2` , readout=GI50) returns > 100 µM (inactive)

---

tested on: SN12C; assay: NCI tumour cell line growth inhibition, 48 h
Activity calls are given as the source filed them. Rule as the data show it: active = GI50 up to about 1.1 µM and inactive = higher.
# GI50 per entry

Record Nc1nn(CC(O)CO)c(=O)s1 (stereo unspecified) , field GI50: > 100 µM (inactive)

Per the records, this compound ( CN1C2C=C(c3ccccc3)CC1CC2 (stereo unspecified) ) has GI50 equal to > 100 µM (inactive)

Note to self: GI50 recorded for `O=C1C(N2CCCC2)=CC(=O)c2c(O)c(N3CCCC3)c(Cl)c(O)c21` was > 10 µM (inactive)

So for N=C(N)NCCCC(Nc1c2ccccc2nc2ccccc12)C(=O)O (stereo unspecified) , the logged GI50 turned out to be > 100 µM (inactive)

The recorded GI50 for entry COC1(OC)C2(Cl)C(Cl)=C(Cl)C1(Cl)C1C2C2CC1(C(=O)O)c1ccccc12 (stereo unspecified) equals 20.5 µM (inactive)

Form: compound = `CCOc1cccc2ccc[n+](CC)c12` ; GI50 = 53.1 µM (inactive)

---

This listing pairs compounds with measured GI50.
tested on: HCT-15
Give the value, in units of µM, as a plain number.

Record excerpt, results attached:
COc1cc(Nc2nc3ccc(C(F)(F)F)cc3nc2-c2ccccc2)cc(OC)c1OC
4.41
COc1ccc2nc3cc(Cl)ccc3c(NCCC[N+](C)(C)CCCCCCCCCCCCCCCC[N+](C)(C)CCCNc3c4ccc(Cl)cc4nc4ccc(OC)cc34)c2c1
5.85
N=c1oc2cc(O)ccc2cc1C(=O)NCc1ccccc1
27.2

Sample `Clc1nc(Nc2nc3ccccc3[nH]2)nc(Cl)c1Cc1ccccc1` ; GI50 observed: 40.2

So, Cc1ccc(S(=O)(=O)NN=C2C(C)CC(C(C)(C)C)CC2C)cc1 (stereo unspecified) ? Its GI50 was 18.2

// recorded GI50 for `Cc1nnc(N)nc1/C=C/c1c(O)ccc2ccccc12` : 17.3

---

system: MDA-MB-435; experiment: NCI tumour cell line growth inhibition, 48 h
The source made the active and inactive calls. Rule as the data show it: active = GI50 up to about 1.1 µM and inactive = higher.
Lab note: assign the record to one of label 1 for active, label 0 for inactive

Please review the entries below; each comes with its answer.
Nc1nc(NCC2(CO)CC2)cc(=O)[nH]1
label 0
CC(C)[C@]12O[C@H]1[C@@H]1O[C@@]13[C@@]1(C)CCC4=C(COC4=O)[C@@H]1C[C@@H]1O[C@@]13C2=O [TRIPTONIDE]
label 1
C=C1[C@H](OC(=O)C(C)C)[C@@H](OC(C)=O)[C@@H](OC(C)=O)C(C)(C)[C@@H]2O[C@H]2[C@@H](C)C(=O)[C@@]2(OC(C)=O)C[C@@](C)(OC(C)=O)[C@H](OC(C)=O)[C@@H]2[C@H]1OC(C)=O
label 0
CC(=O)OCC1OC(SC2=NC(=O)CS2)C(OC(C)=O)C(OC(C)=O)C1OC(C)=O (stereo not given)
label 0

Test call for this compound, please: `CC(=O)c1cc2c(s1)C(=O)c1sccc1C2=O` label 1
